Tested on: HEK-293T
Assay: Multiplex assay against HEK293T
Format: toxicity, cell-based
Details: human, 48 h, 10 µM, compound concentration 10 uM, number of replicates 2

[
  {
    "compound": "Cc1ccc(C(=O)Nc2cc(N3CCN(C)CC3)cc(C(F)(F)F)c2)cc1-n1cc(-c2cnn(C)c2C)nn1.Cl",
    "unit-name": "%",
    "Population Fragmented Nuclei (%)": 8
  },
  {
    "compound": "Cc1cc(NC(=O)c2cccc(NC(=O)/C=C/CN(C)C)c2)ccc1Nc1nccc(-c2cccnc2)n1",
    "unit-name": "%",
    "Population Fragmented Nuclei (%)": 6
  },
  {
    "compound": "Cn1cc(-n2cnc3c(NCc4nc5cc(Cl)c(Cl)cc5[nH]4)nc(N4CCOCC4)nc32)cn1",
    "unit-name": "%",
    "Population Fragmented Nuclei (%)": 5
  },
  {
    "compound": "COc1cc(Nc2cnc(C#N)c(O[C@H](C)CN(C)C)n2)ncc1-c1cnn(C)c1",
    "unit-name": "%",
    "Population Fragmented Nuclei (%)": 3
  },
  {
    "compound": "CN[C@@H]1CC[C@@H](c2ccc(Cl)c(Cl)c2)c2ccccc21.Cl",
    "unit-name": "%",
    "Population Fragmented Nuclei (%)": 5
  },
  {
    "compound": "COc1cccc(Cn2cc(C(=O)Nc3ccc(C)c(S(=O)(=O)N4CCOCC4)c3)c(-c3ccc(C)cc3)n2)c1",
    "unit-name": "%",
    "Population Fragmented Nuclei (%)": 5
  },
  {
    "compound": "CNC(=O)c1c(F)cccc1Nc1nc(Nc2cc3c(cc2OC)CCN3C(=O)CN(C)C)nc2[nH]ccc12",
    "unit-name": "%",
    "Population Fragmented Nuclei (%)": 9
  },
  {
    "compound": "CN1CCCN(C(=O)c2cccc(-c3ccc(/C=C4/C(=O)Nc5ccc(Cl)cc54)o3)c2)CC1",
    "unit-name": "%",
    "Population Fragmented Nuclei (%)": 6
  },
  {
    "compound": "COc1cc(Br)c(S(=O)(=O)Nc2ccc(C(F)(F)F)c(O[C@@H]3CCN(C)C3)c2)cc1OC",
    "unit-name": "%",
    "Population Fragmented Nuclei (%)": 13
  },
  {
    "compound": "Br.Cc1cccc(C2CN(C)CCc3c2cc(O)c(O)c3Cl)c1 (stereo unspecified)",
    "unit-name": "%",
    "Population Fragmented Nuclei (%)": 12
  },
  {
    "compound": "CC(C)S(=O)(=O)c1ccccc1Nc1nc(N[C@@H]2CCCN(CCCCCCCNC(=O)COc3cccc4c3C(=O)N(C3CCC(=O)N(C)C3=O)C4=O)C2)ncc1Cl (stereo partly specified)",
    "unit-name": "%",
    "Population Fragmented Nuclei (%)": 5
  }
]
